Values from ChEMBL document CHEMBL1201862

tested on: SN12C; assay: NCI tumour cell line growth inhibition, 48 h
Activity calls are given as the source filed them. No stated cut-off is given here; in the data, active = GI50 up to about 1.1 µM and inactive = higher.
Result Type: GI50

Examples with answers:
>  <Compound>
O=C(O)c1cc(CCc2ccc(O)c(O)c2)ccc1O

>  <Result>
> 100 µM (inactive)

$$$$
>  <Compound>
CC(C)c1cc(=O)[nH]c2cc(N)ccc12

>  <Result>
> 100 µM (inactive)

$$$$
>  <Compound>
CCC1(O)C(=O)OCc2c1cc1n(c2=O)Cc2cc3cc4c(cc3nc2-1)OCO4 (stereo not drawn)

>  <Result>
< 0.01 µM (active)

$$$$
>  <Compound>
O=C(O)/C(=C\c1ccncc1)c1cccc2ccccc12

>  <Result>
44.1 µM (inactive)

$$$$
>  <Compound>
COc1cc(S(=O)(=O)Nc2nc(-c3ccc(N4C(=O)CSC4c4cccs4)cc3)cs2)ccc1Cl (stereo not drawn)

>  <Result>
25.6 µM (inactive)

$$$$
>  <Compound>
C=C(C)CC1(O)C(=O)C(OCC)=C1OCC (stereo not drawn)

>  <Result>
> 100 µM (inactive)

$$$$
>  <Compound>
NC(=S)N1N=C2c3ccccc3CC[C@H]2[C@@H]1c1cccs1

>  <Result>
39.3 µM (inactive)

$$$$
>  <Compound>
Nc1ccc2c(c1)NC(=O)[C@@H]1CCCN1C2=O

>  <Result>
> 100 µM (inactive)

$$$$

API: the following record is the query input.
**Q:** # lookup: GI50 of O=C(/C=C/c1ccc(O)c(O)c1)OCCCOC(=O)/C=C/c1ccc(O)c(O)c1
**A:** 28.1 µM (inactive)
